Assay Info: The drug is tested on Z-020 corresponding to rabbit gut metagenome with ENA study accession number: PRJEB37062 and ENA sample accession number: ERS12561819 for biotransformation under anaerobic condition. The drug concentrations were measured over 9 timepoints collected between 0 and 24 hours of incubation by liquid-chromatography-coupled mass spectrometry (LC–MS); also: call rule not given here
Experimental Parameters: 2 µM
Property Label: Bacterial Biotransformation

Below: 5 compounds and their reported Bacterial Biotransformation.
- Compound: "CN1CCC(=C2c3ccccc3CC(=O)c3sccc32)CC1.O=C(O)/C=C/C(=O)O [KETOTIFEN FUMARATE]"
  Property Label: "Bacterial Biotransformation"
  Endpoint Value: "Compound NOT metabolized"
- Compound: "CCOC(=O)C1=C[C@]2(CC)CCCN3CCc4c(n1c1ccccc41)[C@@H]32"
  Property Label: "Bacterial Biotransformation"
  Endpoint Value: "Compound metabolized"
- Compound: "CC(C)(C)NC[C@H](O)COc1nsnc1N1CCOCC1.O=C(O)/C=C\\C(=O)O [TIMOLOL MALEATE]"
  Property Label: "Bacterial Biotransformation"
  Endpoint Value: "Compound NOT metabolized"
- Compound: "c1ccc2[nH]c(-c3cscn3)nc2c1"
  Property Label: "Bacterial Biotransformation"
  Endpoint Value: "Compound NOT metabolized"
- Compound: "CN1CCC[C@@H]1CCO[C@](C)(c1ccccc1)c1ccc(Cl)cc1.O=C(O)/C=C/C(=O)O [CLEMASTINE FUMARATE]"
  Property Label: "Bacterial Biotransformation"
  Endpoint Value: "Compound NOT metabolized"

q: Sample CCN(CC)C(=O)C1(c2ccccc2)CC1CN (configuration not stated) — what was its Bacterial Biotransformation?
a: Compound NOT metabolized

q: Next: C[C@]12CCC(=O)C=C1[C@@H]1C[C@@H]1[C@H]1[C@@H]3[C@@H]4C[C@@H]4[C@@]4(CCC(=O)O4)[C@@]3(C)CC[C@@H]12
a: Compound metabolized

q: Next: CC(=O)Nc1ccc(OC(C)=O)cc1 [DIACETAMATE]
a: Compound metabolized

q: Next: N=C(N)NC(=O)Cc1c(Cl)cccc1Cl
a: Compound NOT metabolized

q: Next: COc1ccc(/C=C/C(=O)Nc2ccccc2C(=O)O)cc1OC
a: Compound metabolized

q: Next: C#C[C@]1(OC(C)=O)CC[C@H]2[C@@H]3CCC4=C/C(=N/O)CC[C@@H]4[C@H]3CC[C@@]21CC [NORGESTIMATE]
a: Compound NOT metabolized

q: Next: CCCN(CCC)CCc1cccc2c1CC(=O)N2
a: Compound metabolized

q: Next: Nc1nc(NC2CC2)c2ncn([C@H]3C=C[C@@H](CO)C3)c2n1.Nc1nc(NC2CC2)c2ncn([C@H]3C=C[C@@H](CO)C3)c2n1.O=S(=O)(O)O [ABACAVIR SULFATE]
a: Compound NOT metabolized

q: Next: CN1[C@@H]2CC[C@H]1C[C@@H](OC(=O)c1c[nH]c3ccccc13)C2
a: Compound NOT metabolized

====

Assay Info: The drug is tested on Z-017 corresponding to mouse gut metagenome with ENA study accession number: PRJEB37062 and ENA sample accession number: ERS12561816 for biotransformation under anaerobic condition. The drug concentrations were measured over 9 timepoints collected between 0 and 24 hours of incubation by liquid-chromatography-coupled mass spectrometry (LC–MS)
Experimental Parameters: 2 µM

- Compound: "Cc1cc(C)cc(OCC2CNC(=O)O2)c1 (stereo not drawn) [METAXALONE]"
  Bacterial Biotransformation: "Compound metabolized"
- Compound: "COc1ccnc(C[S+]([O-])c2nc3ccc(OC(F)F)cc3[nH]2)c1OC (stereo not drawn) [PANTOPRAZOLE]"
  Bacterial Biotransformation: "Compound metabolized"

Values were extracted from ChEMBL document CHEMBL5724914.
